Values from patent US5252718A

Tested on: 3T3 cells
experiment_notes: [^3 H]-thymidine incorporation in serum-starved 3T3 cells challenged with bFGF
Format: cell-based
assay_context: 24 hours with peptide and bFGF challenge, then 5 hours label, result in words
Ends that are not written are not given here.
measured_property: inhibition of bFGF-induced mitosis ([^3 H]-thymidine incorporation)

H-YRSRKYSSWY-NH2 [bFGF(106-115)-NH2]; very good inhibition
YNTYRSRKYSSWYVALKR-NH2 [bFGF(103-120)-NH2]; very good inhibition
H-YRSRKYSSWFVALKR-NH2 [[Phe^115]-bFGF(106-120)-NH2]; very good inhibition

----------
experiment_notes: Binding to [^3 H]-heparin
assay_context: result in words
Ends that are not written are not given here.
measured_property: binding of the peptide to heparin

Use the examples below as a reference point.
H-Arg-Leu-Glu-Ser-Asn-Asn-Tyr-Asn-Thr-Tyr-Arg-Ser-Arg-Lys-Tyr-Ser-Ser-Trp- Tyr-Val-Ala-Lys-Arg-NH2 (H-RLESNNYNTYRSRKYSSWYVAKR-NH2) [bFGF(97-120)-NH2]; binds itself to heparin
H-SNNYNTYRSRKYSSWYVALKR-NH2 [bFGF(100-120)-NH2]; binds itself to heparin
YNTYRSRKYSSWYVALKR-NH2 [bFGF(103-120)-NH2]; binds to heparin
H-YRSRKYSSWY-NH2 [bFGF(106-115)-NH2]; binds to heparin
H-FFFERLESNNYNTYRSRKYSSWYVALKR-NH2 [bFGF(93-120)-NH2]; binds to heparin

Now look at this entry.
-- ask Any idea what its binding of the peptide to heparin is? The substance is H-YRSRKYSSWYVALKR-NH2 [bFGF(106-120)-NH2]
-- reply binds to heparin
